B1: Ribonuclease HI, P0A7Y4 (parent)
chain: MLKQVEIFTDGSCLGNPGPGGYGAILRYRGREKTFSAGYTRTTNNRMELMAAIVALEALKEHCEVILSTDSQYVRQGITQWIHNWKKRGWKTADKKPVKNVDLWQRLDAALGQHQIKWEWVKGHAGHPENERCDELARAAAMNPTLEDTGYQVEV

# Variants of: B1
# MEASUREMENT_CONDITIONS: Escherichia coli (strain K12); pH 5.5; 52.7 °C; Thermal; CD; Sodium acetate 20 mM; NaCl 0.1 M; reversible: yes; structure 2RN2; whole UniProt chain shown
Parameter ddG of mutation (higher = less stable): see the listing below.

VARIANT_NAME: K117R
ddG of mutation (higher = less stable), kcal/mol: -0.03

VARIANT_NAME: R41C
ddG of mutation (higher = less stable), kcal/mol: -0.44

VARIANT_NAME: E119V
ddG of mutation (higher = less stable), kcal/mol: -0.74

VARIANT_NAME: H62P
ddG of mutation (higher = less stable), kcal/mol: -1.1

VARIANT_NAME: K95N
ddG of mutation (higher = less stable), kcal/mol: -0.88

VARIANT_NAME: E119V K60R
ddG of mutation (higher = less stable), kcal/mol: -0.63

VARIANT_NAME: H62R
ddG of mutation (higher = less stable), kcal/mol: -0.36

VARIANT_NAME: E135K
ddG of mutation (higher = less stable), kcal/mol: 0.22

The measured values listed here are drawn from FireProtDB.
